These entries and their values trace back to patent US5521315A.

system: mast cell degranulation; assay: Serotonin release assay (inhibition of mast cell degranulation); assay type: cell-based; conditions: 50 μM
Value type: activity in serotonin release assay

>>> df
                                   molecule          value_measured
0  CC/C=C\CCCCCn1c(=O)c2[nH]cnc2n(C)c1=O [CT1442, 1-(6-cis-nonenyl)-3-methylxanthine]  increases the activity
1  CC/C=C\CCCCCn1c(=O)c2c(ncn2C)n(C)c1=O [CT1508, 1-(6-cis-nonenyl)-3,7-dimethylxanthine]  increases the activity

====

Reported values of IC50 for individual entries
tested on: CMV promoter activity in transformed (adenovirus) cells; assay: CMV promoter assay (gene transcription and translation; cytotoxicity in transformed cells); assay type: cell-based
Value type: IC50

>>> df
                                   compound  value_type  value_measured
0          C=CCCCCn1c(=O)c2[nH]cnc2n(C)c1=O        IC50        > 500 µM
1  CC(C)=CCC[C@@H](C)CCn1c(=O)c2c(ncn2C)n(C)c1=O [CT1596R]        IC50        > 500 µM
2  C=CCCCCN1C(=O)CCN(C)C1=O [CT1812, 3-(5-hexenyl)-1-methyldihydrouracil]        IC50        > 100 µM
3  CCCCCCCCC=CCCCCCCCCn1c(=O)c2c(ncn2C)n(C)c1=O        IC50        > 100 µM

====

tested on: mast cell degranulation; experiment: Serotonin release assay (inhibition of mast cell degranulation); assay type: cell-based; conditions: 50 μM; Table 4; average of duplicates
Value type: AVERAGE % RELEASE

In [3]: df
Out[3]:
                                    compound       measurement_target         value_type  value_measured
 0  C=CCn1c(=O)c2c(ncn2C)n(C)c1=O [CT1531, 1-(2-propenyl)-3,7-dimethylxanthine]  mast cell degranulation  AVERAGE % RELEASE          23.55%
 1  CC(C)=CCC/C(C)=C/Cn1c(=O)c2c(ncn2C)n(C)c1=O [CT2545, 1-(Geranyl)-3,7-dimethylxanthine]  mast cell degranulation  AVERAGE % RELEASE          19.05%
 2  C=CCCCCCn1c(=O)c2c(ncn2C)n(C)c1=O [CT1534, 1-(6-heptenyl)-3,7-dimethylxanthine]  mast cell degranulation  AVERAGE % RELEASE          22.02%
 3  CC/C=C\CCCCCCn1c(=O)c2c(ncn2C)n(C)c1=O [CT2560, 1-(7-cis-decenyl)-3,7-dimethylxanthine]  mast cell degranulation  AVERAGE % RELEASE          19.51%
 4  CC/C=C\CCCCCN1C(=O)CCCC1=O [CT1607, N-(6-cis-nonenyl)glutarimide]  mast cell degranulation  AVERAGE % RELEASE          20.38%
 5  CC(C)=CCC[C@@H](C)CCCn1c(=O)c2c(ncn2C)n(C)c1=O [CT2536R]  mast cell degranulation  AVERAGE % RELEASE          16.00%
 6  C=CCCCCn1c(=O)c(C)cn(C)c1=O [CT1905, 3-(5-hexenyl)-1-methylthymine]  mast cell degranulation  AVERAGE % RELEASE          21.49%
 7  C=CCCCCCCCn1c(=O)c2[nH]cnc2n(C)c1=O [CT1405, 1-(8-nonenyl)-3-methylxanthine]  mast cell degranulation  AVERAGE % RELEASE          21.69%
 8  CC/C=C/CCCCCn1c(=O)c2c(ncn2C)n(C)c1=O [CT2512, 1-(6-trans-nonenyl)-3,7-dimethylxanthine]  mast cell degranulation  AVERAGE % RELEASE          18.20%
 9  C=CCCCCCCCn1c(=O)c(C)cn(C)c1=O [CT1917, 3-(8-nonenyl)-1-methylthymine]  mast cell degranulation  AVERAGE % RELEASE          20.31%
10  C=CCCCCCCCCCN1C(=O)CCCC1=O [CT1610, N-(10-undecenyl)glutarimide]  mast cell degranulation  AVERAGE % RELEASE          18.83%
11  C=CCCCCCCCCCn1c(=O)ccn(C)c1=O [CT1823, 3-(10-undecenyl)1-methyluracil]  mast cell degranulation  AVERAGE % RELEASE          21.28%
12  C=CCCn1c(=O)c2c(ncn2C)n(C)c1=O [CT2503, 1-(3-butenyl)-3,7-dimethylxanthine]  mast cell degranulation  AVERAGE % RELEASE          21.43%
13  CCCCCCCCC=CCCCCCCCCn1c(=O)c2c(ncn2C)n(C)c1=O [CT2539, 1-(9-octadecenyl)-3,7-dimethylxanthine]  mast cell degranulation  AVERAGE % RELEASE          19.69%
14  C=CCCCCCCCCCn1c(=O)c2[nH]cnc2n(C)c1=O [CT1406, 1-(10-undecenyl)-3-methylxanthine]  mast cell degranulation  AVERAGE % RELEASE          19.81%
